Recorded values, source PubChem BioAssay (NCI).

tested on: PC-3 prostate; test: NCI tumour cell line growth inhibition, 48 h
valueType: TGI (µM)
Expressed in µM, but write only the number.

Incoming: Give recorded TGI with PC-3 prostate for the following compound: C(=C\c1ccccc1)/COc1ccccc1C(N1CCOCC1)n1nc2ccccc2n1 (stereo not drawn)
Outgoing: 10.9

Incoming: What measured TGI is associated with CSc1ccc(N(C)c2nc(C)nc3c2CCC3)cc1 on PC-3 prostate?
Outgoing: 51.6

====

Consider the following compounds; for each one, report its TGI.
tested on: SK-OV-3 ovarian; assay: NCI tumour cell line growth inhibition, 48 h
Number in µM, nothing else.

Incoming: Observed TGI on SK-OV-3 ovarian for COc1ccc2c(c1)c(=O)c1c(NCCNCCO)ccc3c(=O)n(CCN(C)C)c(=O)n2c31 , please.
Outgoing: 2.71

Incoming: Lookup: TGI / SK-OV-3 ovarian / COc1cc(C2c3cc4c(cc3[C@@H](Nc3ccc5c(c3)OCCO5)C3COC(=O)[C@H]23)OCO4)cc(OC)c1O (some centres undefined)
Outgoing: 8.7

====

system: HOP-92 NSCLC; assay: NCI tumour cell line growth inhibition, 48 h
valueType: TGI

Incoming: Consider the molecule O=C1c2cccc3cccc(c23)C(=O)N1O and give its measured TGI.
Outgoing: 94.5 µM

Incoming: Record request: TGI value, item C[C@]12C/C(=C/O)C(=O)C(O)=C1CC[C@@H]1C2CC[C@@]2(C)C1CC[C@@H]2O (stereo partly drawn)
Outgoing: 46.4 µM

Incoming: Recorded TGI for O=C(OCC1OC(n2nc(Cn3nnc(-c4cccnc4)n3)n(-c3cccc4ccccc34)c2=S)C(OC(=O)c2ccccc2)C1OC(=O)c1ccccc1)c1ccccc1 (stereo not drawn) , please?
Outgoing: > 100 µM

Incoming: Quick one: TGI for COc1cc(C(O)c2ccc3c(c2)OCO3)cc(OC)c1OC (stereo not drawn) ?
Outgoing: > 100 µM

Incoming: Need TGI of C[C@H]1[C@H](C)CC[C@]2(C(=O)OC3OC(CO)C(O)C(O)C3O)CC[C@]3(C)C(=CC[C@@H]4[C@@]5(C)C[C@H]6OC(=O)c7cc(O)c(O)c(O)c7-c7c(cc(O)c(O)c7O)C(=O)O[C@@H]6C(CO)(CO)[C@@H]5CC[C@]43C)[C@H]12 (stereo partly drawn) , thanks.
Outgoing: > 100 µM

Incoming: Please look up its TGI: C[n+]1c(/C=C/c2ccc(O)c3ncccc23)[se]c2ccccc21
Outgoing: 22.3 µM

Incoming: Report TGI for CSc1nc2c(ncn2C2OC(CO)C(O)C(O)C2O)c(=O)[nH]1 (stereo not drawn) please.
Outgoing: > 100 µM

Incoming: // returns reported TGI for input Cc1cc(C)c(/C=C(\C(=C/c2c(C)cc(C)cc2C)[N+](=O)[O-])[N+](=O)[O-])c(C)c1
Outgoing: > 100 µM

====

test system: HCT-116 colon; assay: NCI tumour cell line growth inhibition, 48 h
Exercise: state measured TGI for each of the compounds provided.
Answer in µM, number only, no unit symbol.

Incoming: Need TGI of CC(C)C1=C(O)C2=C(C(=O)C1=O)C1(C)CCCC(C)(C)C1C(O)C2OC=O (configuration not stated) , thanks.
Outgoing: 20.3

Incoming: Dear colleague, I am looking for the recorded TGI of the following compound: Cc1ccccc1/C=C/C(=O)c1ccccc1
Outgoing: 31

Incoming: Recorded TGI for CCN(CC)c1ccc(/C=C/C2=[N+](C)c3ccccc3C2(C)C)c(C)c1 , please?
Outgoing: 3.82

Incoming: I would be grateful if you could share the reported TGI for O=C1C(C(O)(C(F)(F)F)C(F)(F)F)CCC1C(O)(C(F)(F)F)C(F)(F)F (configuration not stated) .
Outgoing: 13.1

Incoming: Give the measured TGI of COc1cc2nc(-c3ccc(C(F)(F)F)cc3)cc(OCCCN3CCCC3)c2cc1OC .
Outgoing: 4.29
